assay.text: in vivo
condition.set: swiss nude, mouse, tumor, iv
Numbered stars: 1 amine (or outer) side, 2 acyl side, 3 side chain; on linkers, the order of the positions; unused ones are H or OH. Bridge positions count the residues as written; N and C are the ends. Square brackets hold non-standard residues; d marks the D form. Peptide text beside a SMILES is read from it. * marks the point of attachment. X1 = NCCNCC(CNCCN)C(=O)N1CCN(CC(=O)NCCCOCCOCCOCCCN*)CC1; mXylylene = c1cc(C[*:1])cc(C[*:2])c1; Suc = O=C(CCC(=O)[*:2])[*:1]; Nle = CCCC[C@H](N)C(=O)O
measured.parameter: tissue uptake at 6 h
Number first, unit second: that is the form wanted.

Sample records with tissue uptake at 6 h:
1. CCCCNC(=O)N[C@H]1CSCc2cc(cc(CN3CCN(C(=O)C(CNCCN)CNCCN)CC3)c2)CSC[C@@H](C(=O)O)NC(=O)[C@H](Cc2ccccc2)NC(=O)[C@H](CCC(N)=O)NC(=O)[C@H]([C@@H](C)O)NC(=O)[C@@H]2CCCN2C(=O)[C@@H]2CCCN2C1=O : 6.75 %ID/g
2. CCCC[C@H](NC(=O)CCC(=O)NCCCOCCOCCOCCCNC(=O)CN1CCN(C(=O)C(CNCCN)CNCCN)CC1)C(=O)N[C@H]1CSCc2cccc(c2)CSC[C@@H](C(=O)NCCC(=O)O)NC(=O)[C@H](Cc2ccccc2)NC(=O)[C@H](CCC(N)=O)NC(=O)[C@H]([C@@H](C)O)NC(=O)[C@@H]2CCCN2C(=O)[C@@H]2CCCN2C1=O : 12.1 %ID/g

Consider the record given below.
IN: Find the recorded tissue uptake at 6 h belonging to CCCC[C@H](NC(=O)CCC(=O)NCCCOCCOCCOCCCNC(=O)CN1CCN(C(=O)C(CNCCN)CNCCN)CC1)C(=O)N[C@H]1CSCc2cccc(c2)CSC[C@@H](C(=O)O)NC(=O)[C@H](Cc2ccccc2)NC(=O)[C@H](CCC(=O)O)NC(=O)[C@H]([C@@H](C)O)NC(=O)[C@@H]2CCCN2C(=O)[C@@H]2CCCN2C1=O [3BP-4782] ({X1-Suc}-[Nle]CPPTEFC-OH; linker 2-8 via mXylylene) and report it.
OUT: 7.17 %ID/g

Numbers sourced from patent US20230212549A1.
